Molecular target: T1, human activated protein C (APC) (human, UniProt P04070 43-461)
T1 construct: Bought (Haematologic Technologies; plasma-derived from Enzyme Research Laboratories); Two-chain disulfide-linked protease
T1 sequence (P04070 other isoform, or with tags, fused parts or gaps): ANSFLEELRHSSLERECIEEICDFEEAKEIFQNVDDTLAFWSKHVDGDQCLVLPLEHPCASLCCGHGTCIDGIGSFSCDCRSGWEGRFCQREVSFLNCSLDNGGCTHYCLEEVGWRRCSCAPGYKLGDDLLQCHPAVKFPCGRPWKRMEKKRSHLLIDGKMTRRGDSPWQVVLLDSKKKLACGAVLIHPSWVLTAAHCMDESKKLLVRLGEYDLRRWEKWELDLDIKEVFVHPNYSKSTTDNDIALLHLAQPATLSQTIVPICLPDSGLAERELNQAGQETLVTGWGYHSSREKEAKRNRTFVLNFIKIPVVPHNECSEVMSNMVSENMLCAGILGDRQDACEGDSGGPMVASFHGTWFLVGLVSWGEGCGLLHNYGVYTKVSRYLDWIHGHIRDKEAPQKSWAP
Test: BLI, VHH captured via anti-V5, APC in solution
This listing pairs binders with measured koff.
Respond with the bare value in s⁻¹.

binder="LP9 (SR16983-R3-P3-B05) (VHH, not shown: small tags and cut ends, Llama VHH purified from E. coli periplasm) VHH: EVQLVESGGGLVQAGGSLRLSCAASGRTFVGSYVMGWFRQAPGKEREFVAASSRSTGNTVYLDSVKGRFTVSRDDAKNTLYLQMNSLKTEDTAVYYCATRASINYNAATWPYWGQGTQVTVSS" endpoint_label=koff display_unit=s⁻¹ quantitative_readout=6.3e-07

Here is the next item to consider.
Task: Fill in reported koff for this entry: LP12 (SR16983-R3-P3-F06) (VHH, not shown: small tags and cut ends, Llama VHH purified from E. coli periplasm) VHH: QLQLVESGGGLVQAGDSLRLSCTSSGLTASTYAMAWFRQAPGKEREFVAVVDWKGDTTYANSVKGRFTLSRDNGKNTNYLQMNSLQPEDTALYYCAARGSPGYVARLYAHWGRGTQVTVSS
Output: 0.00026
